Kindly supply the reported koff values for the records listed here.
measurement target: SARS-CoV-2 nucleocapsid protein (N), 2X-StrepTag tagged (SARS-CoV-2, UniProt P0DTC9 1-419)
experiment summary: BLI
One number for each entry, in s⁻¹.

# example entries with known answers
[[record]]
binder = "recombinant human CCL21 (ligand) SDGGAQDCCLKYSQRKIPAKVVRSYRKQEPSLGCSIPAILFLPRKRSQAELCADPKELWVQQLMQHLDKTPSPQKPAQGCRKDRGASKTGKKGKGSKGCKRTERSQTPKGP"
obs_value = 0.0014

[[record]]
binder = "recombinant human CXCL9 (ligand) TPVVRKGRCSCISTNQGTIHLQSLKDLKQFAPSPSCEKIEIIATLKNGVQTCLNPDSADVKELIKKWEKQVSQKKKQKNGKKHQKKKVLKVRKSQRSRQKKTT"
obs_value = 0.00085

[[record]]
binder = "recombinant human CXCL11 (ligand) FPMFKRGRCLCIGPGVKAVKVADIEKASIMYPSNNCDKIEVIITLKENKGQRCLNPKSKQARLIIKKVERKNF"
obs_value = 0.0033

[[record]]
binder = "recombinant human CXCL14 (ligand) SKCKCSRKGPKIRYSDVKKLEMKPKYPHCEEKMVIITTKSVSRYRGQEHCLHPKLQSTKRFIKWYNAWNEKRRVYEE"
obs_value = 0.0019

[[record]]
binder = "recombinant human CCL26 (ligand) TRGSDISKTCCFQYSHKPLPWTWVRSYEFTSNSCSQRAVIFTTKRGKKVCTHPRKKWVQKYISLLKTPKQL"
obs_value = 0.00093

[[record]]
binder = "recombinant human CCL28 (ligand) SEAILPIASSCCTEVSHHISRRLLERVNMCRIQRADGDCDLAAVILHVKRRRICVSPHNHTVKQWMKVQAAKKNGKGNVCHRKKHHGKRNSNRAHQGKHETYGHKTPY"
obs_value = 0.00087

[[record]]
binder = "recombinant human CXCL4 (ligand) EAEEDGDLQCLCVKTTSQVRPRHITSLEVIKAGPHCPTAQLIATLKNGRKICLDLQAPLYKKIIKKLLES"
obs_value = 0.00053


// next item, koff requested
Req: Would you kindly share the measured koff for recombinant human CCL5 (ligand) SPYSSDTTPCCFAYIARPLPRAHIKEYFYTSGKCSNPAVVFVTRKNRQVCANPEKKWVREYINSLEMS ?
Resp: 0.00019
